Target: T1, EsCas13d, nuclease-dead (Eubacterium siraeum, UniProt B0MS50, R295A;H300A;R849A;H854A)
T1 sequence: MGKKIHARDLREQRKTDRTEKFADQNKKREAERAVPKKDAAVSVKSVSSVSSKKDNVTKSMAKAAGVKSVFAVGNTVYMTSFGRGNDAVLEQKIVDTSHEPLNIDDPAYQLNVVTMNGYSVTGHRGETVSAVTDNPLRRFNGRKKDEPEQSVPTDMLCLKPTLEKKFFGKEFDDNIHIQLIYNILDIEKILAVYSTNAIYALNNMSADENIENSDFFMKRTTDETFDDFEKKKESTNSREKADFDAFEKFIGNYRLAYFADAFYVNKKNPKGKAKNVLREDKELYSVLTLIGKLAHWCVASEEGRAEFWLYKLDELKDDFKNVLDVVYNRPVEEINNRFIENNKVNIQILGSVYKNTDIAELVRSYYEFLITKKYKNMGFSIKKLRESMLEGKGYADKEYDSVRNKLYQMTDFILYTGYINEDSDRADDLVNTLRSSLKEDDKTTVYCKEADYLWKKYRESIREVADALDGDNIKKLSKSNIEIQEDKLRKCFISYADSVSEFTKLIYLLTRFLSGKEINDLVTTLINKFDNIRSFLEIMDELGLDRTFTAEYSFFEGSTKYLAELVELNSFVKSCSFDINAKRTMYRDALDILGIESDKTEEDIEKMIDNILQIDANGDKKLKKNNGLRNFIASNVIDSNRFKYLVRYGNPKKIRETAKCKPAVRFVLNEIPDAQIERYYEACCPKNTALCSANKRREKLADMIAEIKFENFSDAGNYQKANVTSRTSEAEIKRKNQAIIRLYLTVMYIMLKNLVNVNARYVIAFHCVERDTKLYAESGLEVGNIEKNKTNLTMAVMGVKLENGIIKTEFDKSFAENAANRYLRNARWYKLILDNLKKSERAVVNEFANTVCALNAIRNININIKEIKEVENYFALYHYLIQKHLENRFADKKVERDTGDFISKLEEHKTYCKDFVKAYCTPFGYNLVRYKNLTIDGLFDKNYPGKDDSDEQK
Assay: crRNA (strand 1, pre-loaded); Mg2+; 40 mM Tris-HCl pH 7.5, 150 mM NaCl, 6 mM MgCl2, 1 mM DTT, 0.1% Tween-20, 0.2 mg/ml BSA; 25 C; 10 min per concentration, then washed
Settings: tags: His6-TwinStrep-SUMO cleaved; N-terminal SNAP kept (SNAP-Surface 488); label: 3' end held by stalled T7 RNA polymerase
// pKd lookup, one value per entry
Please treat pKd as minus the base-10 logarithm of the molar concentration.

Tell me its pKd given target 1 C7G,A14C (mixed) RNA 1: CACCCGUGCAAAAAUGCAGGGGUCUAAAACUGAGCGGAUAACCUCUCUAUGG RNA 2: GGGAAUGGAUCCACAUCUACGAAUUCGUACCAUAGAGCGGUUAUGCGCUCACCGAGAUCGGAAGAGCACACGU as the entry. 7.47

Tell me its pKd given target 1 MT 5'PFS GAG 3'PFS ACG (mixed) RNA 1: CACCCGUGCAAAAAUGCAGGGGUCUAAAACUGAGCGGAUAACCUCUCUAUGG RNA 2: GGGAAUGGAUCCACAUCUACGAAUUCGAGCCAUAGAGAGGUUAUCCGCUCAACGAGAUCGGAAGAGCACACGU as the entry. 7.49

Tell me its pKd given target 1 insU 3' of 9,insG 3' of 7 (mixed) RNA 1: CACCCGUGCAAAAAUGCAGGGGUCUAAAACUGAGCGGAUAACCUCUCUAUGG RNA 2: GGGAAUGGAUCCACAUCUACGAAUUCGUACCAUAGAGAGGUUAUUCGCGCUCACCGAGAUCGGAAGAGCACACGU as the entry. 7.97

Tell me its pKd given target 1 del8,del18 (mixed) RNA 1: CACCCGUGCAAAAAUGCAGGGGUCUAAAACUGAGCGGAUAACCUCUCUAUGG RNA 2: GGGAAUGGAUCCACAUCUACGAAUUCGUACCAUGAGAGGUUACCGCUCACCGAGAUCGGAAGAGCACACGU as the entry. 7.12

Tell me its pKd given target 1 C6G,A16U (mixed) RNA 1: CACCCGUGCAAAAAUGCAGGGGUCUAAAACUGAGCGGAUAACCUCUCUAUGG RNA 2: GGGAAUGGAUCCACAUCUACGAAUUCGUACCAUAGUGAGGUUAUCGGCUCACCGAGAUCGGAAGAGCACACGU as the entry. 7.39

Further cases:
Tell me its pKd given target 1 insU 3' of 14,insA 3' of 11 (mixed) RNA 1: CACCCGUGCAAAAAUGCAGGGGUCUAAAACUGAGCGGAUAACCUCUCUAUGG RNA 2: GGGAAUGGAUCCACAUCUACGAAUUCGUACCAUAGAGAUGGUAUAUCCGCUCACCGAGAUCGGAAGAGCACACGU as the entry. 7.27
